Reported pIC50 is given for each of the following compounds.
target: Recombinant human cathepsin A (Homo sapiens, UniProt P10619); construct: Recombinant human cathepsin A (residues 29-480, with a C-terminal 10-His tag); 10-His (C); purchased R&D Systems 1049-SE; experiment: Cathepsin A inhibitory activity; format: biochemical; conditions: read-out: Activity (2): Cathepsin A inhibitory activity, IC50 class
Sequence (P10619 29-312 limits assumed): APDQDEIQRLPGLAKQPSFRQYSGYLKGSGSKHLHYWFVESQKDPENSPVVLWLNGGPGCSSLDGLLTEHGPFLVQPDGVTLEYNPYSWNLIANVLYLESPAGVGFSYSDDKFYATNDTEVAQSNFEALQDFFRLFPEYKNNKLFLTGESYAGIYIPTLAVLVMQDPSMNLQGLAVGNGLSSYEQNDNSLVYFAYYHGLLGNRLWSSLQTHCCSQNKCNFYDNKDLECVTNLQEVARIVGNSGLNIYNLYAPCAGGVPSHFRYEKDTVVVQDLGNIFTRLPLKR
Sequence (P10619 327-480 limits assumed): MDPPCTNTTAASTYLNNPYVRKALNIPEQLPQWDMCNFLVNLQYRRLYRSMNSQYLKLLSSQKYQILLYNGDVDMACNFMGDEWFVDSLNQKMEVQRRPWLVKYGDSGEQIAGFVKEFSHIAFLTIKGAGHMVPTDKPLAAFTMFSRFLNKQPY
pIC50: −log10 of the molar value.

Study these solved cases before continuing.
compound="Cc1cccc(C(CC(=O)O)NC(=O)c2cc(O)n(-c3ccccc3)n2)c1C (centres unmarked)" target_entity="Recombinant human cathepsin A (Homo sapiens, UniProt P10619)" observed_result="6.00 to 7.00"
compound=Cc1cccc([C@H](CC(=O)O)NC(=O)c2cc(O)n(-c3ccc(Cl)cc3)n2)c1 target_entity="Recombinant human cathepsin A (Homo sapiens, UniProt P10619)" observed_result="6.00 to 7.00"
compound=COc1ccccc1[C@H](CC(=O)O)NC(=O)c1cc(O)n(-c2ccccc2Cl)n1 target_entity="Recombinant human cathepsin A (Homo sapiens, UniProt P10619)" observed_result="6.00 to 7.00"
compound=O=C(O)CC1(NC(=O)c2cc(O)n(-c3ccccc3)n2)CCCC1 target_entity="Recombinant human cathepsin A (Homo sapiens, UniProt P10619)" observed_result="4.52 to 6.00"
compound=CC(C)(C)[C@](C)(O)COc1cc(C(=O)N[C@@H](CC(=O)O)c2cccc(F)c2)nn1-c1ccccc1F target_entity="Recombinant human cathepsin A (Homo sapiens, UniProt P10619)" observed_result="> 7.00"
compound="COc1ccc(C(CC(=O)O)NC(=O)c2cc(O)n(-c3cc(C)ccc3C)n2)cc1OC (centres unmarked)" target_entity="Recombinant human cathepsin A (Homo sapiens, UniProt P10619)" observed_result="4.52 to 6.00"
compound="CCCC(CC(=O)O)NC(=O)c1cc(O)n(-c2cc(C)ccc2C)n1 (centres unmarked)" target_entity="Recombinant human cathepsin A (Homo sapiens, UniProt P10619)" observed_result="4.52 to 6.00"
compound=O=C(O)C[C@H](NC(=O)c1cc(O)n(-c2ccccc2F)n1)c1cccc(Cl)c1 target_entity="Recombinant human cathepsin A (Homo sapiens, UniProt P10619)" observed_result="6.00 to 7.00"
compound=CC(C)(C)[C@H](O)COc1cc(C(=O)N[C@@H](CC(=O)O)c2cccc(Cl)c2)nn1-c1ccccc1F target_entity="Recombinant human cathepsin A (Homo sapiens, UniProt P10619)" observed_result="> 7.00"
compound="O=C(O)CC(NC(=O)c1cc(O)n(-c2ccc(Cl)cc2)n1)c1cccc(C(F)(F)F)c1Cl (centres unmarked)" target_entity="Recombinant human cathepsin A (Homo sapiens, UniProt P10619)" observed_result="6.00 to 7.00"

Would you kindly look at the next entry?
Which measured pIC50 value corresponds to CCc1ccc(C(CC(=O)O)NC(=O)c2cc(O)n(-c3cccc(F)c3)n2)cc1 (centres unmarked) ?
6.00 to 7.00
